B1: ZER1 (parent)
chain: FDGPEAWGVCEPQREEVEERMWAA

- Variants of: B1
- Assay Name: protein stability index of a GFP-peptide fusion (GPS, HEK-293T) (PSI 1-6); higher = more stable;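 also: lentivirally expressed fusions sorted by FACS into six bins by GFP to DsRed ratio, PSI derived from sequencing read proportions per bin multiplied by bin number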
- Condition Summary: c terminus: a fixed tail appended
Use 2 as the dividing line for protein stability index, with the line itself on the label 1 side and lower values as label 0.

• G3L = label 0
• A24E = label 1
• M21R = label 1
• A23C = label 1
• G3M = label 1

Please indicate if the recorded protein stability index for R14S meets or exceeds 2.
label 1

Try this variant next: E15H
label 0

Try this variant next: F1C
label 1

The reported numbers originate from the supplement of paper PMC10567573.
